PROTOCOL NOTES: Oral bioavailability in dog
Type: ADME, organism-based, Canis lupus familiaris
MEASUREMENT SETUP: in vivo
READOUT LABEL: bioavailability (%)
Just the number please, in %, no unit attached.

Item: O=C(O)[C@@H](CC1CC1)N1CC(CN2CCC(CCC(F)(F)c3ccc(F)cc3)CC2)[C@@H](c2cccc(F)c2)C1 (single isomer, unassigned) | bioavailability: 37

====

PROTOCOL NOTES: Oral bioavailability
Assay type: ADME, organism-based
MEASUREMENT SETUP: rat, in vivo
READOUT LABEL: bioavailability (%)
# number only, unit % dropped from output

Please review the following examples before continuing.
# SMILES, VALUE UNIT, bioavailability
data = [
    ("O=C(O)[C@@H](CC1CCC1)N1C[C@H](CN2CCC(CCCc3ccccc3)CC2)[C@@H](c2cccc(F)c2)C1", "%", 24),
    ("N#Cc1ccc(CCCC2CCN(C[C@H]3CN([C@H](CC4CCC4)C(=O)O)C[C@@H]3c3cccc(F)c3)CC2)cc1", "%", 7),
]

Here is another compound to look at.
// O=C(O)[C@@H](CC1CCC1)N1C[C@H](CN2CCC(CCCc3ccc(F)cc3)CC2)[C@@H](c2cccc(F)c2)C1 : bioavailability value = 16

====

Test system: Human immunodeficiency virus 1
PROTOCOL NOTES: In vitro antiviral activity against HIV-1 (BAL) in HeLa cells.
Assay type: functional
MEASUREMENT SETUP: Human immunodeficiency virus 1, HeLa
Documented IC90 across a set of compounds

Example cases with answers are listed next.
# COMPOUND, READOUT LABEL, OBSERVED
records = [
    ("O=C(O)[C@@H](CC1CCC1)N1CC(CN2CCC(CCC(F)(F)c3ccc(F)cc3)CC2)[C@@H](c2cccc(F)c2)C1 (single isomer, unassigned)", "IC90", "1.6 nM"),
    ("CC(C)[C@H](C(=O)O)N1C[C@H](CN2CCC(CCS(=O)(=O)c3ccc(F)cc3)CC2)[C@@H](c2cccc(F)c2)C1", "IC90", "4 nM"),
    ("CC(O)(CCC1CCN(C[C@H]2CN([C@H](CC3CC3)C(=O)O)C[C@@H]2c2cccc(F)c2)CC1)c1ccc(F)cc1 (some centres undefined)", "IC90", "1.2 nM"),
]

Turning to the following compound.
Reported IC90 for O=C(O)[C@@H](CC1CCC1)N1C[C@H](CN2CCC(CCCc3ccc(F)cc3)CC2)[C@@H](c2cccc(F)c2)C1 was 2 nM

====

PROTOCOL NOTES: Volume of distribution was evaluated in rhesus
Format: ADME, organism-based
MEASUREMENT SETUP: cercopithecidae, in vivo; read-out: Vdss
READOUT LABEL: Vd
Value and unit, in that order.

# COMPOUND, Vd
measured = [
    ("O=C(O)[C@@H](CC1CC1)N1CC(CN2CCC(CCC(F)(F)c3ccc(F)cc3)CC2)[C@@H](c2cccc(F)c2)C1 (single isomer, unassigned)", "2.8 L/kg"),
]

Would you kindly look at the next entry?
Reported Vd of O=C(O)[C@@H](CC1CCC1)N1CC(CN2CCC(CCC(F)(F)c3ccc(F)cc3)CC2)[C@@H](c2cccc(F)c2)C1 (single isomer, unassigned) : 1.8 L/kg

====

PROTOCOL NOTES: Volume of distribution was evaluated in dog
Assay type: ADME, organism-based, Canis lupus familiaris
MEASUREMENT SETUP: in vivo, read-out: Vdss
READOUT LABEL: Vd (L/kg)
Quick reminder: number only, in L/kg, skip the unit.

Lab book: Vd of O=C(O)[C@@H](CC1CC1)N1CC(CN2CCC(CCC(F)(F)c3ccc(F)cc3)CC2)[C@@H](c2cccc(F)c2)C1 (single isomer, unassigned) noted as 3.7

====

PROTOCOL NOTES: Plasma clearance was evaluated in dog
Assay type: ADME, organism-based, Canis lupus familiaris
MEASUREMENT SETUP: read-out: Clp
READOUT LABEL: clearance (mL/min/kg)
Reply numerically in mL/min/kg, unit not repeated.

Consider O=C(O)[C@@H](CC1CC1)N1CC(CN2CCC(CCC(F)(F)c3ccc(F)cc3)CC2)[C@@H](c2cccc(F)c2)C1 (single isomer, unassigned) . Its measured clearance is 24

====

PROTOCOL NOTES: Volume of distribution was evaluated in rat
Assay type: ADME, organism-based
MEASUREMENT SETUP: in vivo, read-out: Vdss
READOUT LABEL: Vd (L/kg)
Number only, in L/kg; omit the unit.

For orientation, consider the following solved cases.
# MOLECULE, READOUT LABEL, OBSERVED
records = [
    ("O=C(O)[C@@H](CC1CC1)N1CC(CN2CCC(CCC(F)(F)c3ccc(F)cc3)CC2)[C@@H](c2cccc(F)c2)C1 (single isomer, unassigned)", "Vd", 6.1),
    ("CC(O)(CCC1CCN(C[C@H]2CN([C@H](CC3CC3)C(=O)O)C[C@@H]2c2cccc(F)c2)CC1)c1ccc(F)cc1 (stereo not given in full)", "Vd", 3.9),
    ("O=C(O)[C@@H](CC1CCC1)N1CC(CN2CCC(CCC(F)(F)c3ccc(F)cc3)CC2)[C@@H](c2cccc(F)c2)C1 (single isomer, unassigned)", "Vd", 2.2),
    ("O=C(O)[C@@H](CC1CC1)N1C[C@H](CN2CCC(CCC(O)c3ccc(F)cc3)CC2)[C@@H](c2cccc(F)c2)C1 (stereo not given in full)", "Vd", 3.3),
]

Consider the additional molecule presented here.
Record O=C(O)[C@@H](CC1CCC1)N1C[C@H](CN2CCC(CCS(=O)(=O)c3ccc(F)cc3)CC2)[C@@H](c2cccc(F)c2)C1 , field Vd: 1.9

====

PROTOCOL NOTES: Plasma clearance was evaluated in rhesus
Format: ADME, organism-based
MEASUREMENT SETUP: cercopithecidae, read-out: Clp
READOUT LABEL: clearance (mL/min/kg)
Output spec: scalar in mL/min/kg, unitless text.

# MOLECULE, VALUE UNIT, clearance
measured = [
    ("O=C(O)[C@@H](CC1CC1)N1CC(CN2CCC(CCC(F)(F)c3ccc(F)cc3)CC2)[C@@H](c2cccc(F)c2)C1 (single isomer, unassigned)", "mL/min/kg", 17.6),
]

Summary for this molecule, O=C(O)[C@@H](CC1CCC1)N1CC(CN2CCC(CCC(F)(F)c3ccc(F)cc3)CC2)[C@@H](c2cccc(F)c2)C1 (single isomer, unassigned) : clearance is 11

====

PROTOCOL NOTES: Oral bioavailability in Rhesus monkey
Assay type: ADME, organism-based, Macaca mulatta
MEASUREMENT SETUP: in vivo
READOUT LABEL: bioavailability

# COMPOUND, OBSERVED
records = [
    ("O=C(O)[C@@H](CC1CCC1)N1CC(CN2CCC(CCC(F)(F)c3ccc(F)cc3)CC2)[C@@H](c2cccc(F)c2)C1 (single isomer, unassigned)", "12%"),
]

Next item in the queue.
Per the record, O=C(O)[C@@H](CC1CC1)N1CC(CN2CCC(CCC(F)(F)c3ccc(F)cc3)CC2)[C@@H](c2cccc(F)c2)C1 (single isomer, unassigned) has bioavailability of 8%

====

PROTOCOL NOTES: Plasma clearance was evaluated in rat
Format: ADME, organism-based
MEASUREMENT SETUP: read-out: Clp
Note to self: clearance under 50 mL/min/kg means Yes, ties and anything higher get No.

Some entries whose results are on file:
# MOLECULE, CLASS NAME
records = [
    ("N#Cc1ccc(CCCC2CCN(C[C@H]3CN([C@H](CC4CCC4)C(=O)O)C[C@@H]3c3cccc(F)c3)CC2)cc1", "Yes"),
    ("O=C(O)[C@@H](CC1CCC1)N1C[C@H](CN2CCC(CCS(=O)(=O)c3ccc(F)cc3)CC2)[C@@H](c2cccc(F)c2)C1", "No"),
    ("O=C(O)[C@@H](CC1CC1)N1C[C@H](CN2CCC(CCC(O)c3ccc(F)cc3)CC2)[C@@H](c2cccc(F)c2)C1 (stereo partly drawn)", "No"),
]

Determine if O=C(O)[C@@H](CC1CCC1)N1CC(CN2CCC(CCC(F)(F)c3ccc(F)cc3)CC2)[C@@H](c2cccc(F)c2)C1 (single isomer, unassigned) shows clearance strictly lower than 50 mL/min/kg.
Yes

Is clearance of O=C(O)[C@@H](CC1CC1)N1CC(CN2CCC(CCC(F)(F)c3ccc(F)cc3)CC2)[C@@H](c2cccc(F)c2)C1 (single isomer, unassigned) strictly below 50 mL/min/kg?
Yes

Input O=C(O)[C@@H](CC1CCC1)N1C[C@H](CN2CCC(CCCc3ccccc3)CC2)[C@@H](c2cccc(F)c2)C1 ; condition: clearance strictly below 50 mL/min/kg. Does it hold?
Yes

Identify whether the molecule CC(O)(CCC1CCN(C[C@H]2CN([C@H](CC3CC3)C(=O)O)C[C@@H]2c2cccc(F)c2)CC1)c1ccc(F)cc1 (stereo partly drawn) records clearance below 50 mL/min/kg.
Yes

Threshold test, clearance < 50 mL/min/kg: O=C(O)[C@@H](CC1CCC1)N1C[C@H](CN2CCC(CCCc3ccc(F)cc3)CC2)[C@@H](c2cccc(F)c2)C1
Yes
